All values here come from ChEMBL document CHEMBL5053531.

experiment: AUC (0 to infinity) in C57BL/6 mouse at 5 mg/kg, sc measured up to 8 hrs by LC-MS analysis; assay type: ADME, organism-based; design: dose 5 mg/kg, time < 8 hrs, route sc; conditions: in vivo
Measure: AUC(0-inf) (µM·h)
# number only, unit µM·h dropped from output

Reported AUC(0-inf), compound Cc1ncsc1-c1ccc(CNC(=O)[C@@H]2C[C@@H](O)CN2C(=O)[C@@H](NC(=O)COCCOCCOCCNC(=O)C[C@@H]2N=C(c3ccc(Cl)cc3)c3c(sc(C)c3C)-n3c(C)nnc32)C(C)(C)C)cc1 : ____
3.76
